- Tested on: CCRF-CEM leukemia cells
- TEST DETAILS: CCRF-CEM ASNase cell proliferation assay
- Assay type: cell-based
- CONDITION SET: Homo sapiens, 1 mU/mL ASNase, 72 h
READOUT TYPE: IC50

Q: Name the recorded IC50 for CCC(C)(C)C(=O)OCc1cc(Cl)cc(S(=O)(=O)Nc2cccc(-c3cn(C)c4ncnc(N)c34)c2F)c1Cl .
Result: 1 to 10 µM

Q: Recorded IC50 of Cn1cc(-c2cccc(NS(=O)(=O)c3cccc(CO)c3Cl)c2F)c2c(N)ncnc21 , please.
Result: 1 to 10 µM

Q: Which value of IC50 has been reported for Nc1nccc2occ(-c3cccc(NS(=O)(=O)c4cc(Cl)cc(CO)c4Cl)c3F)c12 in the records?
Result: 1 to 10 µM
